- System: UO-31 renal
- assay.notes: NCI tumour cell line growth inhibition, 48 h
In this section, each of the compounds is paired with its reported TGI.

Sample records with TGI:
{"compound": "COc1ccc(/C(C)=C(\\c2ccc(Cl)cc2)c2ccc(OCCN3CCCC3)cc2)cc1F", "tested.system": "UO-31 renal", "recorded.metric": "TGI", "value": "6.26 µM"}
{"compound": "Cc1c2c(nn1C(=O)c1nn(-c3ccc(Cl)cc3)cc1O)-c1ccccc1CC2", "tested.system": "UO-31 renal", "recorded.metric": "TGI", "value": "> 100 µM"}
{"compound": "CC(C)OCC(O)COc1ccc2ccc(=O)oc2c1 (configuration not stated)", "tested.system": "UO-31 renal", "recorded.metric": "TGI", "value": "> 100 µM"}

// returns reported TGI for input `CCOC(=O)c1c(C)nc2ccc(Cl)cc2c1-c1ccccc1` 31.1 µM

// returns reported TGI for input N#CC(c1ccccc1)N1CCCN(C(C#N)c2ccccc2)C1c1ccccc1O (configuration not stated) > 100 µM

// returns reported TGI for input OCC1OC(Oc2cc(O)cc(/C=C\c3ccc(O)cc3)c2)C(O)C(O)C1O (configuration not stated) > 100 µM

// returns reported TGI for input CC(C)(C)[Si](C)(C)OCCCCC1CC2(S(=O)(=O)C3=CC=C=C=C3)ON1CC2S(=O)(=O)c1ccccc1 (configuration not stated) > 100 µM

====

In this section, each of the compounds is paired with its reported TGI.
- System: OVCAR-5 ovarian
- assay.notes: NCI tumour cell line growth inhibition, 48 h

Sample records with TGI:
{"compound": "CCc1ccc(Nc2cc(=O)[nH]c(SCc3ccccc3)n2)cc1", "tested.system": "OVCAR-5 ovarian", "TGI": "> 100 µM"}
{"compound": "C#CCN=C(N/N=C/c1ccc([N+](=O)[O-])o1)NS(=O)(=O)c1cc(C)c(Cl)cc1SCC(N)=O", "tested.system": "OVCAR-5 ovarian", "TGI": "34.5 µM"}
{"compound": "Nc1cc2c3c(cccc3c1)C(=O)N(c1ccc(OCCN3CCCCC3)cc1)C2=O", "tested.system": "OVCAR-5 ovarian", "TGI": "44 µM"}
{"compound": "O=C1CC(CC(O)C(O)C(O)CO)CC(=O)N1 (configuration not stated)", "tested.system": "OVCAR-5 ovarian", "TGI": "> 100 µM"}
{"compound": "COC(=O)C1(C(=O)OC)CC2c3c(c4ccccc4n3C)CC(C1=O)N2Cc1ccccc1 (configuration not stated)", "tested.system": "OVCAR-5 ovarian", "TGI": "> 100 µM"}
{"compound": "C=C1C(=O)O[C@H]2[C@H]1CC/C(Cn1cc(Cn3ccc4ccccc43)nn1)=C\\CC[C@@]1(C)O[C@@H]21", "tested.system": "OVCAR-5 ovarian", "TGI": "3.21 µM"}
{"compound": "COC(=O)C(C)NP(=O)(OCc1ccc(Cn2cnc3c(=O)[nH]c(N)nc32)cc1)Oc1ccccc1 (configuration not stated)", "tested.system": "OVCAR-5 ovarian", "TGI": "> 100 µM"}
{"compound": "O=C(c1cccc(OCc2ccccc2)c1OCc1ccccc1)N1CCSC1=S", "tested.system": "OVCAR-5 ovarian", "TGI": "> 100 µM"}

Now look at this entry.
Hi! What's the reported TGI for `O=S(=O)(N=S(c1ccc(Cl)cc1)c1ccc(Cl)cc1)c1ccccc1` on OVCAR-5 ovarian? > 100 µM

====

- System: NCI-H23 lung
- assay.notes: NCI tumour cell line growth inhibition, 48 h
recorded.metric: log10(TGI) (log10 of the value in µM)
A difference of one corresponds to tenfold TGI; all values are log10 with TGI in µM.

Sample records with log10(TGI):
{"smiles": "CCOC(=O)c1ccc(N(CCOS(C)(=O)=O)CCOS(C)(=O)=O)cc1C", "tested.system": "NCI-H23 lung", "log10(TGI)": 1.74}
{"smiles": "Cn1c(=O)c2c(no[n+]2[O-])n(C)c1=O", "tested.system": "NCI-H23 lung", "log10(TGI)": 1.68}
{"smiles": "O=C(c1cccc(OCc2ccccc2)c1OCc1ccccc1)N1CCSC1=S", "tested.system": "NCI-H23 lung", "log10(TGI)": 1.87}

// returns reported log10(TGI) for input `O=S(=O)(/N=C(\NO)Nc1ccc(Cl)cc1)c1ccc(S(=O)(=O)c2ccccc2)s1` 1.72

// returns reported log10(TGI) for input `O=C1C(=O)c2ccccc2-c2ccccc21` 0.60

====

- System: OVCAR-4 ovarian
recorded.metric: GI50

Sample records with GI50:
{"molecule": "Cn1cccc1-c1cc(-c2cccs2)[nH]c(=O)c1C#N", "recorded.metric": "GI50", "value": "> 100 µM"}
{"molecule": "O=C1OCc2c1cc(F)cc2[N+](=O)[O-]", "recorded.metric": "GI50", "value": "> 100 µM"}
{"molecule": "COC(=O)C(C)NP(=O)(OCc1ccc(Cn2cnc3c(=O)[nH]c(N)nc32)cc1)Oc1ccccc1 (stereo not given)", "recorded.metric": "GI50", "value": "> 100 µM"}
{"molecule": "Cc1cc(N2CCCCCC2)nc(NC2CCCC(Nc3ccnc4cc(Cl)ccc34)C2)n1 (stereo not given)", "recorded.metric": "GI50", "value": "1.56 µM"}
{"molecule": "Cc1cccc2c(N=Nc3ccc(S(N)(=O)=O)cc3)c(O)[nH]c12", "recorded.metric": "GI50", "value": "> 25 µM"}
{"molecule": "Cn1ncc2c(/N=C/c3cccs3)[nH]c(=S)nc21", "recorded.metric": "GI50", "value": "> 59 µM"}
{"molecule": "O=C(Nc1n[nH]c2nc(-c3ccco3)ccc12)C1CC1", "recorded.metric": "GI50", "value": "> 25 µM"}
{"molecule": "C/C(CC(=O)NNc1ccc([N+](=O)[O-])cc1)=N\\Nc1ccc([N+](=O)[O-])cc1", "recorded.metric": "GI50", "value": "5.92 µM"}

// returns reported GI50 for input `CC(=O)O[C@H]1C(=O)O[C@@H]2C[C@H]3C(C)=CC(=O)[C@@H](O)[C@]3(C)[C@H]3[C@@]4(O)OC[C@]32[C@@H]1[C@@H](C)[C@H]4O` 0.0394 µM

// returns reported GI50 for input `COc1cc2ccc3c4c(OC)cc(OC)c(OC)c4c(=O)n(C)c3c2cc1OC` 2.67 µM

====

- System: DU-145 prostate
- assay.notes: NCI tumour cell line growth inhibition, 48 h
recorded.metric: TGI

Sample records with TGI:
{"compound": "COc1ccc(N=C2C(=O)C3=C(OC(C)(C)CC3)c3ccccc32)cc1", "TGI": "1.57 µM"}
{"compound": "CCOC(=O)/C(=C\\NCC(OCC)OCC)c1nc2ccccc2[nH]1", "TGI": "> 100 µM"}

Hi! What's the reported TGI for `N#CC(=S)Nc1ccc(Cl)c(Cl)c1` on DU-145 prostate? > 100 µM

Hi! What's the reported TGI for O=C(O)C(CSC(c1ccccc1)(c1ccccc1)c1ccccc1)N=Cc1cccs1 (stereo not given) on DU-145 prostate? > 38.1 µM

====

- Tested on: A498 renal
Use one of these outcomes when replying: active, inactive

{"compound": "CCCc1cc2cc(-n3nc(C)c4c3CC(C)(C)CC4=O)cc(NC3CCC(O)CC3)c2c(=O)[nH]1 (stereo not given)", "tested.system": "A498 renal", "class.name": "inactive"}
{"compound": "Cc1c2c(nn1C(=O)c1nn(-c3ccc(Cl)cc3)cc1O)-c1ccccc1CC2", "tested.system": "A498 renal", "class.name": "active"}
{"compound": "CCOC(=O)c1c(C)nc2ccc(Cl)cc2c1-c1ccccc1", "tested.system": "A498 renal", "class.name": "inactive"}

Lab note: next compound to report on.
Dear colleague, could you share the recorded outcome for `COc1cc(C#N)cc(OC)c1OCCOCCOc1c(OC)cc(C#N)cc1OC` when you have a moment? inactive

====

- Tested on: MALME-3M melanoma
- assay.notes: NCI tumour cell line growth inhibition, 48 h
In this section, each of the compounds is paired with its reported TGI.

{"compound": "O=[N+]([O-])c1cc(CCl)ccc1CCl", "TGI": "3.51 µM"}
{"compound": "O=C(O)C1NCCc2c1[nH]c1ccccc21 (stereo unspecified)", "TGI": "> 100 µM"}

// returns reported TGI for input `NC(=O)N/N=C(\C(=O)C(=O)Nc1ccc(Cl)c(C(F)(F)F)c1)c1nc2ccc(C(=O)c3ccccc3)cc2[nH]c1=O` > 100 µM

// returns reported TGI for input `[O-][N+](CCO)(CCO)c1ncnc2nc[nH]c12` > 100 µM

// returns reported TGI for input CCC(C)C1NC(=O)C2CCCN2C(=O)C(CC2CO2)OC(=O)CCNC(=O)C(C)N(C)C(=O)C(C(C)C)N(C)C1=O (stereo unspecified) 0.0641 µM

// returns reported TGI for input NC1CC(=O)c2c(Cl)sc(Cl)c21 (stereo unspecified) 4.66 µM

// returns reported TGI for input `C=C1C(=O)O[C@H]2[C@H]1CC/C(Cn1cc(Cn3ccc4ccccc43)nn1)=C\CC[C@@]1(C)O[C@@H]21` 3.34 µM

// returns reported TGI for input `CC(=O)OCc1cc(OC(C)=O)cnc1COC(C)=O` > 100 µM

// returns reported TGI for input `O=S(=O)(O)c1cccc2c(N=Nc3c(O)ccc4ccccc34)cccc12` > 100 µM

Recorded values, source PubChem BioAssay (NCI).
